I'd be grateful if you could share measured activity coefficient for these entries.
experiment: activity coefficient (dimensionless); of the first substance listed, at infinite dilution; xn = mol fraction of the nth substance listed; details: 303.15 K; 101 kPa; Liquid; Chromatography; x1 = 0
// return just the number, without any unit appended

Reported activity coefficient of Cc1cccc(C)c1 [1,3-dimethylbenzene] + CCCCn1cc[n+](C)c1.O=S(=O)([O-])C(F)(F)F : 4.72

Record summary for Cc1ccc(C)cc1 [1,4-dimethylbenzene] + CCCCn1cc[n+](C)c1.O=S(=O)([O-])C(F)(F)F : reported activity coefficient = 4.3

// activity coefficient value for CCCCCCC [heptane] + CCCCn1cc[n+](C)c1.O=S(=O)([O-])C(F)(F)F : 56.7

For record Cc1ccccc1 [toluene] + CCCCn1cc[n+](C)c1.O=S(=O)([O-])C(F)(F)F the listed activity coefficient is 2.72

These data points were gathered from the NIST ThermoML archive (doi:10.1021/je700282w).
